Assay: melting temperature; melt of duplexes
Conditions: sodium 0.0675 M; strand 1 µM
Rule: Tm below 50 °C gives true, anything at or above gives false.

# TODO verify Tm < 50 °C strictly for this substance: CGACGTGCTGAATGTGCTG+CAGCACATGTAGCACGTCG (((((((((..((((((((+))))))))..)))))))))
false

----------
Assay: melting temperature; melt of duplexes
Settings: sodium 0.0675 M; strand 1 µM
What Tm was measured for each of the following?
Answers are plain numbers, in °C.

These solved cases illustrate the format of a correct answer.
{"SUBSTANCE": "CGACGTGCCCCATGTGCTG+CAGCACATTCAGCACGTCG ((((((((...((((((((+))))))))...))))))))", "Tm [°C]": 47.7}
{"SUBSTANCE": "CGACGTGCAATATGTGCTG+CAGCACATTAAGCACGTCG ((((((((...((((((((+))))))))...))))))))", "Tm [°C]": 50.1}

Could you report Tm for every entry in the following list?
1. CGACGTGCATCATGTGCTG+CAGCACATACCGCACGTCG ((((((((...((((((((+))))))))...))))))))
2. CGACGTGCGGGATGTGCTG+CAGCACATCCTGCACGTCG ((((((((.((((((((((+)))))))))).))))))))
3. CGACGTGCTGAATGTGCTG+CAGCACATCGGGCACGTCG ((((((((...((((((((+))))))))...))))))))
4. CGACGTGCAGAATGTGCTG+CAGCACATTAGGCACGTCG ((((((((..(((((((((+)))))))))..))))))))
5. CGACGTGCCTAATGTGCTG+CAGCACATGGGGCACGTCG (((((((((..((((((((+))))))))..)))))))))
6. CGACGTGCAATATGTGCTG+CAGCACATGAAGCACGTCG ((((((((...((((((((+))))))))...))))))))
7. CGACGTGCCTTATGTGCTG+CAGCACATCCCGCACGTCG ((((((((...((((((((+))))))))...))))))))

1: 46.6; 2: 62.6; 3: 50.9; 4: 54.1; 5: 56; 6: 52.3; 7: 46.8

Could you report Tm for every entry in the following list?
1. CGACGTGCACCATGTGCTG+CAGCACATGTTGCACGTCG (((((((((.(((((((((+))))))))).)))))))))
2. CGACGTGCCACATGTGCTG+CAGCACATTCCGCACGTCG ((((((((...((((((((+))))))))...))))))))

[55, 47.1]

Could you report Tm for every entry in the following list?
1. CGACGTGCCGTATGTGCTG+CAGCACATGGGGCACGTCG (((((((((..((((((((+))))))))..)))))))))
2. CGACGTGCCCGATGTGCTG+CAGCACATAGGGCACGTCG ((((((((((.((((((((+)))))))).))))))))))
3. CGACGTGCTGGATGTGCTG+CAGCACATTGTGCACGTCG ((((((((...((((((((+))))))))...))))))))
4. CGACGTGCTAGATGTGCTG+CAGCACATCTAGCACGTCG (((((((((((((((((((+)))))))))))))))))))

57.1
61.5
48.3
63.6

----------
Assay: melting temperature; melt of duplexes
Settings: sodium 0.0675 M; strand 1 µM
MEASURE: Tm
Report field: quantity (unit follows the number).

{"SUBSTANCE": "CGACGTGCTAGATGTGCTG+CAGCACATGGGGCACGTCG ((((((((...((((((((+))))))))...))))))))", "Tm": "51 °C"}

Could you report Tm for every entry in the following list?
1. CGACGTGCTGAATGTGCTG+CAGCACATCTTGCACGTCG ((((((((...((((((((+))))))))...))))))))
2. CGACGTGCTCAATGTGCTG+CAGCACATTCGGCACGTCG ((((((((..(((((((((+)))))))))..))))))))
3. CGACGTGCCACATGTGCTG+CAGCACATTGCGCACGTCG ((((((((...((((((((+))))))))...))))))))
4. CGACGTGCCCAATGTGCTG+CAGCACATAACGCACGTCG ((((((((...((((((((+))))))))...))))))))
5. CGACGTGCGATATGTGCTG+CAGCACATCGCGCACGTCG (((((((((..((((((((+))))))))..)))))))))
6. CGACGTGCGTGATGTGCTG+CAGCACATAGAGCACGTCG ((((((((...((((((((+))))))))...))))))))

["50.5 °C", "51.2 °C", "50.5 °C", "47.3 °C", "53.6 °C", "53.1 °C"]

----------
Assay: melting temperature; melt of duplexes
Settings: sodium 0.0675 M; strand 1 µM
Rule: Tm below 50 °C gives 1, anything at or above gives -1.

Example cases with answers are listed next.
{"SUBSTANCE": "CGACGTGCCCGATGTGCTG+CAGCACATCTGGCACGTCG (((((((((.(((((((((+))))))))).)))))))))", "CATEGORY": -1}
{"SUBSTANCE": "CGACGTGCGAGATGTGCTG+CAGCACATGACGCACGTCG (((((((((..((((((((+))))))))..)))))))))", "CATEGORY": -1}
{"SUBSTANCE": "CGACGTGCCATATGTGCTG+CAGCACATCAGGCACGTCG (((((((((..((((((((+))))))))..)))))))))", "CATEGORY": -1}
{"SUBSTANCE": "CGACGTGCGTGATGTGCTG+CAGCACATTGCGCACGTCG (((((((((..((((((((+))))))))..)))))))))", "CATEGORY": -1}
{"SUBSTANCE": "CGACGTGCTCAATGTGCTG+CAGCACATACGGCACGTCG ((((((((...((((((((+))))))))...))))))))", "CATEGORY": 1}

Please find the next substance below.
# TODO verify Tm < 50 °C strictly for this substance: CGACGTGCCATATGTGCTG+CAGCACATTAGGCACGTCG (((((((((..((((((((+))))))))..)))))))))
-1

----------
What Tm was measured for each of the following?
Test: melting temperature; melt of duplexes
Conditions: sodium 0.0675 M; strand 1 µM
Answers are plain numbers, in °C.

These solved cases illustrate the format of a correct answer.
{"SUBSTANCE": "CGACGTGCAGAATGTGCTG+CAGCACATCACGCACGTCG ((((((((...((((((((+))))))))...))))))))", "UNIT_ABBREV": "°C", "Tm": 50.1}
{"SUBSTANCE": "CGACGTGCTGGATGTGCTG+CAGCACATGCAGCACGTCG ((((((((((.((((((((+)))))))).))))))))))", "UNIT_ABBREV": "°C", "Tm": 61.3}
{"SUBSTANCE": "CGACGTGCACCATGTGCTG+CAGCACATCGAGCACGTCG ((((((((.(.((((((((+)))))))).).))))))))", "UNIT_ABBREV": "°C", "Tm": 45.7}
{"SUBSTANCE": "CGACGTGCCGTATGTGCTG+CAGCACATGCTGCACGTCG ((((((((.(.((((((((+)))))))).).))))))))", "UNIT_ABBREV": "°C", "Tm": 51.2}
{"SUBSTANCE": "CGACGTGCGACATGTGCTG+CAGCACATAAAGCACGTCG ((((((((...((((((((+))))))))...))))))))", "UNIT_ABBREV": "°C", "Tm": 55.2}
{"SUBSTANCE": "CGACGTGCAGGATGTGCTG+CAGCACATCAGGCACGTCG ((((((((..(((((((((+)))))))))..))))))))", "UNIT_ABBREV": "°C", "Tm": 56.6}
{"SUBSTANCE": "CGACGTGCAAAATGTGCTG+CAGCACATCATGCACGTCG (((((((((..((((((((+))))))))..)))))))))", "UNIT_ABBREV": "°C", "Tm": 49.9}
{"SUBSTANCE": "CGACGTGCTCAATGTGCTG+CAGCACATATCGCACGTCG ((((((((...((((((((+))))))))...))))))))", "UNIT_ABBREV": "°C", "Tm": 47.5}
{"SUBSTANCE": "CGACGTGCGCTATGTGCTG+CAGCACATCGGGCACGTCG ((((((((.(.((((((((+)))))))).).))))))))", "UNIT_ABBREV": "°C", "Tm": 52}
{"SUBSTANCE": "CGACGTGCGCCATGTGCTG+CAGCACATCAGGCACGTCG ((((((((...((((((((+))))))))...))))))))", "UNIT_ABBREV": "°C", "Tm": 47.8}

Could you report Tm for every entry in the following list?
1. CGACGTGCACTATGTGCTG+CAGCACATGGCGCACGTCG ((((((((.(.((((((((+)))))))).).))))))))
2. CGACGTGCAGGATGTGCTG+CAGCACATACGGCACGTCG ((((((((.(.((((((((+)))))))).).))))))))
3. CGACGTGCCTTATGTGCTG+CAGCACATAATGCACGTCG ((((((((.((((((((((+)))))))))).))))))))
4. CGACGTGCCGTATGTGCTG+CAGCACATAACGCACGTCG ((((((((..(((((((((+)))))))))..))))))))
5. CGACGTGCGCTATGTGCTG+CAGCACATGCTGCACGTCG ((((((((...((((((((+))))))))...))))))))
6. CGACGTGCTCAATGTGCTG+CAGCACATCCAGCACGTCG (((((((((..((((((((+))))))))..)))))))))

[50.3, 56.1, 53.7, 52.6, 51.5, 50.5]

Could you report Tm for every entry in the following list?
1. CGACGTGCCCAATGTGCTG+CAGCACATCGCGCACGTCG ((((((((.(.((((((((+)))))))).).))))))))
2. CGACGTGCGTTATGTGCTG+CAGCACATAATGCACGTCG ((((((((.((((((((((+)))))))))).))))))))

1. 48.7
2. 57.4
